- procedure-text: Pseudomonas biofilm growth suppression – PAO1 strain, BacTiter-Glo luminescence, LB-PBS, primary screen (AID 1144)
- condition-description: P. aeruginosa PAO1 biofilm, 12 h, higher = more signal
Threshold rule: z-score greater than or equal to -0.3 is Yes; below that, No.

O=C(Nc1cc(Br)ccc1C(=O)NCc1cccc(O)c1)c1ccccc1 | Yes
CC(C)CCC[C@@H](C)[C@H]1CC[C@@]2(C)C3=C(CC[C@]12C)[C@@]1(C)CC[C@H](OC(=O)c2ccc(N)cc2)C(C)(C)C1CC3 (stereo partly specified) | No

Enquiry: Does CN(C)CCCC[C@@H]1NC(=O)[C@H]2C[C@@H](C(=O)NCCCCCCNC(=O)CS)[C@@H](c3ccc(O)cc3)N2C1=O have a reported z-score of at least -0.3?
Return: Yes

Enquiry: Does COCCOC(=O)N1C(=O)[C@@]2(c3cc(C#CCCO)ccc31)[C@H](c1ccc(OCCO)cc1)N1[C@H](c3ccccc3)[C@H](c3ccccc3)OC(=O)[C@H]1[C@@H]2C(=O)N1CCc2cc(OC)c(OC)cc2C1 have a reported z-score of at least -0.3?
Return: No

Enquiry: Does C=C(COC)C(=O)CC[C@H](OC(=O)c1ccccc1-c1ccccc1C(=O)O)c1ccc(OCCO)cc1 have a reported z-score of at least -0.3?
Return: No

Enquiry: Does COCCOC(=O)N1C(=O)[C@@]2(c3cc(C#CCCO)ccc31)[C@H](C(=O)NC[C@H](O)c1ccccc1)[C@H]1C(=O)O[C@H](c3ccccc3)[C@H](c3ccccc3)N1[C@@H]2c1ccccc1OCCO have a reported z-score of at least -0.3?
Return: Yes

* * *

- procedure-text: binders from COS7 lysate, DM2A8 probe, primary screen, torsin A project, cell lysate, small-molecule microarray, fluorescence 635/667 (AID 1065)
- condition-description: higher = more signal, COS7 lysate expressing mutant human TOR1A
readout-type: composite z-score
Just the number, please, no unit after it.

Enquiry: Could you share which composite z-score value was measured for COCC(=C=CC[C@@H](O)c1ccccc1OCCO)C[C@@H](O)c1ccccn1 ?
Return: 0.663

Enquiry: Could you share which composite z-score value was measured for C/C=C/[C@@H](CCn1cc([C@H](O)c2ccccc2)nn1)[Si](C)(C)c1ccc(OC)cc1 ?
Return: 1.28

Enquiry: Could you share which composite z-score value was measured for COc1ccccc1CN1C(=O)c2ccccc2[C@@]2(Cc3ccccc3N(C3CC3)C2=O)[C@@H]1c1ccc(CO)cc1 ?
Return: -0.804

Enquiry: Could you share which composite z-score value was measured for C[N+](C)(C)CCCCCCNC(=O)[C@@H]1C[C@@H]2C(=O)NCC(=O)N2[C@@H]1c1ccc(O)cc1 ?
Return: 1.27

Enquiry: Could you share which composite z-score value was measured for COCCOC(=O)N1C(=O)[C@@]2(c3ccccc31)[C@H](c1ccc(OCCO)cc1)N1[C@H](c3ccccc3)[C@H](c3ccccc3)OC(=O)[C@H]1[C@@H]2C(=O)NC[C@H](O)c1ccccc1 ?
Return: 0.537

Enquiry: Could you share which composite z-score value was measured for CC(C)(C)OC(=O)CC[C@@]1(C(=O)N2CCCCC2)N=C(c2ccc(OCCCO)cc2)O[C@@H]1c1ccccc1N=[N+]=[N-] ?
Return: 0.805

Enquiry: Could you share which composite z-score value was measured for COCCOC(=O)N1C(=O)[C@@]2(c3cc(C#CC4(O)CCCCCC4)ccc31)[C@H](C(=O)NC[C@H](O)c1ccccc1)[C@H]1C(=O)O[C@H](c3ccccc3)[C@H](c3ccccc3)N1[C@@H]2c1ccc(OCCO)cc1 ?
Return: -0.166
